# Tested System: T1, human IL-17A (construct not stated) (human, UniProt Q16552 24-155, limits assumed)
# T1 construct: also called huIL-17A; human IL-17A biotin
# T1 sequence: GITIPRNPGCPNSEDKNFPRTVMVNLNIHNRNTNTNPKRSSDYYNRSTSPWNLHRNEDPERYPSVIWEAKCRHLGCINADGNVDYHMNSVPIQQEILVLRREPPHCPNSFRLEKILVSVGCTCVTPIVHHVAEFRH
# Test Details: ELISA on coated huIL-17A, crude Fab extract
Readout Name: Classic ELISA (normalized to XAB1 Fab)

- Binder: "MB457 (Fab, V domains shown, 30 stays I); heavy chain C-terminal Flag tag) VH: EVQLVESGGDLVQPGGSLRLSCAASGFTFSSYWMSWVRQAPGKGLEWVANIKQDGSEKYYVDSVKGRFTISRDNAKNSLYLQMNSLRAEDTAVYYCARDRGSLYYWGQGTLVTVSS VL: AIQLTQSPSSLSASVGDRVTITCRPSQGIIWSLAWYQQKPGKAPKLLIYDASSLENGVPSRFSGSGSGTDFTLTISSLQPEDFATYYCQQFNSYPLTFGGGTKVEIK"
  Readout Name: "Classic ELISA (normalized to XAB1 Fab)"
  Observed Measurement: "2.7 ratio to XAB1 Fab"
- Binder: "MB453 (Fab, V domains shown, heavy chain C-terminal Flag tag) VH: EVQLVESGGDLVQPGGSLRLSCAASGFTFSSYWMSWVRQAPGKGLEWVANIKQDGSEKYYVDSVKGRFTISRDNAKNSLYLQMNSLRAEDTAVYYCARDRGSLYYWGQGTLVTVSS VL: AIQLTQSPSSLSASVGDRVTITCRPSQGIVFWLAWYQQKPGKAPKLLIYDASSLENGVPSRFSGSGSGTDFTLTISSLQPEDFATYYCQQFNSYPLTFGGGTKVEIK"
  Readout Name: "Classic ELISA (normalized to XAB1 Fab)"
  Observed Measurement: "2.7 ratio to XAB1 Fab"

Summary for this binder, MB440 (Fab, V domains shown, heavy chain C-terminal Flag tag) VH: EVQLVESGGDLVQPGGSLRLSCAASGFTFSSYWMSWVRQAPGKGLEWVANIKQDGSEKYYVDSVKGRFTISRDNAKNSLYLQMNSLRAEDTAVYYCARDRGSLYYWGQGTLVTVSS VL: AIQLTQSPSSLSASVGDRVTITCRPSQGILWQLAWYQQKPGKAPKLLIYDASSLENGVPSRFSGSGSGTDFTLTISSLQPEDFATYYCQQFNSYPLTFGGGTKVEIK : Classic ELISA (normalized to XAB1 Fab) is 2.8 ratio to XAB1 Fab
